target: SHP2-C SH2; experiment: SH2 binding enrichment of the phosphorylated peptide, bacterial display (enrichment ratio); higher = better substrate or ligand; peptides without Tyr show the background
Kindly return MET if reported SH2 binding enrichment is no lower than 0.8; return NOT MET if it is lower.

Decide: is the reported value of SH2 binding enrichment for LLASRYDSPIN [ABLIM1_Y638] equal to or greater than 0.8?
MET

And the next one, KANEYYPVVLI [ADAMTS18_Y765] ?
NOT MET

Same question, KKDGPYDVVVL [PARK7_Y67_E64D] this time
MET

For SGPRRYTIAAL [TTR_Y125] then?
NOT MET

Continue with RHSGSYLVTSV [APC_Y2838]
MET

And what about the sequence AGQEEYSAMRD [HRAS_Y64] ?
NOT MET

Likewise for FLAVGYHKPHI [IDS_Y225] ?
MET

Please answer likewise for VDASYCGGRGV [ANTXR2_Y381_Y381C]
NOT MET

Lookup VIVRMYDYHVL [RPF2_Y109_G106V]
MET

And what about the sequence PSSNLYFRCLT [CNGA3_Y168_W171C_YF] ?
NOT MET

Next up: KKGIVYVFNGR [ITGAV_Y404_I405V]
MET

How about this sequence: LFNQDYPIHSV [GATM_Y227_YF]
NOT MET

KDFTIYNPNLL [VANGL1_Y290] , same question.
NOT MET

Now the same for LVMFIYAIFWM [SCN1A_Y1684_G1688W]
MET

One more sequence: SGTYQYIIAKF [FOXL2_Y83_I80T]
NOT MET

Follow-up entry: VGGRIYTDDGL [PKLR_Y218_I219T]
MET

Also PIYEGYALPHA [ACTA1_Y171] ?
NOT MET

# iterate: ILGRYYERGSI [PAX5_Y73_T75R]
NOT MET

How about TEAEPYFRSLR [NPHS1_Y1138_YF] ?
MET

Next sequence: SVTCTYSPALN [TP53_Y126]
NOT MET

Also check TFGNLYGSRKQ [YIPF7_Y59_A54T_YF]
NOT MET

Also check RRYLYYYSYLL [PTEN_Y177_V175L]
NOT MET

Thanks! And SVEELYAIPPD [PEAK1_Y797] ?
NOT MET

Also, PLRANYLIARV [HLCS_Y635_D634N] please.
MET

Request: IVEELYAIPPD [PEAK1_Y797_S792I]
NOT MET

Quick one: APQFTYTQGGQ [FLNA_Y1763_A1764T_YF]
NOT MET

Now this one: TSPALYRLDLD [TRIL_Y352_A347T]
NOT MET

Again, but for IDAICYYRMEN [NPHS2_Y194]
NOT MET

Follow-up entry: DPTNTYARPAE [SGMS2_Y24]
NOT MET

Try this sequence too: GTSLIYWILFT [G6PC3_Y214_T216I]
NOT MET

Param item: NHYKICNLCAE [PTEN_Y68_Y68C]
MET

----------
tested on: c-Src; test: phosphorylation enrichment, bacterial display (enrichment ratio); higher = better substrate or ligand; peptides without Tyr show the background
Please note: label 1 applies when phosphorylation enrichment is 0.6 or greater, and label 0 applies otherwise.

Can NTSKMYIPHTD [EXPH5_Y782_D777N] be said to have phosphorylation enrichment at or above 0.6?
label 0

Same question, RPGGRYPVARR [SHANK3_Y1569_S1566G] this time
label 1

Follow-up item: LHRAHYDLRHT [AHSG_Y314]
label 0

Now give it for LRLFSYSTTIR [CYP7B1_Y365_S363F] too.
label 0

How about this sequence: DFPGIYSGFDD [POLR1C_Y33_N32I_YF]
label 1

And the next one, DENWFYTRAAF [RPS19_Y54_S59F] ?
label 0

What do we get for ESSKAYERDLS [TTC37_Y1074_A1077D] ?
label 0

Record: KSAAIYNPVIF [RHO_Y301_YF]
label 1

Then DENCFYTRAAS [RPS19_Y54_W52C] ?
label 1

Next record, please: SVKVYYKKCWF [EPHA7_Y202_S207F]
label 0

Also check LRTAVHHEILI [CREBBP_Y1450_Y1450H]
label 1

Try the sequence SLQSEYVHFGG [CDC14A_Y591_YF]
label 1

// repeat for LERYIYNREEF [HLA-DPB1_Y59] and report
label 1

Then what about the sequence MFNPYYGLFEY [NEDD4L_Y680] ?
label 1

Then this sequence: KKDGPYDVVVL [PARK7_Y67_E64D]
label 0

Record: DVFVSYDFGKS [SORL1_Y139_YF]
label 0

Further, for ISKTWYSAEQF [CD207_Y217_P213S] ?
label 0

Also PRARTYCYKQE [KLHDC9_Y175_S171R] ?
label 1

Also CSTIHYNFMCN [TP53_Y234_T230S_YF] ?
label 0

Further, for RLNCIYFKDQT [RS1_Y165_W163C_YF] ?
label 1

Please give the result for SVTCTNSPALN [TP53_Y126_Y126N] too.
label 0

Same again, this time with PLLLSYFLIKW [NUP160_Y773_YF]
label 1

Next entry: LVMFIYAIFWM [SCN1A_Y1684_G1688W]
label 0

Also, VEKEKYVSFIS [JMJD1C_Y596_M591V_YF] please.
label 0

Same question, SRVTQYERNFE [SNX1_Y463_D466N] this time
label 0

Input CATIHYNYMCN [TP53_Y234_T230A]
label 0

Now consider LLASGYDSPIN [ABLIM1_Y638_R637G] .
label 0

Do the same for RNNIEYVRDIG [MUSK_Y577] please
label 0

----------
molecular target: Grb2 SH2 (UniProt P62993); assay: SH2 binding enrichment of the phosphorylated peptide, bacterial display (enrichment ratio); higher = better substrate or ligand; peptides without Tyr show the background
Sequence (P62993 whole entry, looked up): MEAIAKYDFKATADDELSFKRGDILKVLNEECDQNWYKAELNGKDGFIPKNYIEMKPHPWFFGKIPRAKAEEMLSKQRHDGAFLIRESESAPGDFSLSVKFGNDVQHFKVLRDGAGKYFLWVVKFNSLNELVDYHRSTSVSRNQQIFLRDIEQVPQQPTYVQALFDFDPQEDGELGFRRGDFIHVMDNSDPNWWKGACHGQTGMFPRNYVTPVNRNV
measurement name: SH2 binding enrichment

Lab request: please report SH2 binding enrichment under test system Grb2 SH2 (UniProt P62993) for MVIPNYSSWTE [UROC1_Y185_R188W]
0.864

Item: DDKEFYSVHNK [MET_Y1235_Y1230D_YF]
0.831

Queued: RKQQLYTAMEE [CCDC39_Y593]
1.29

Next sequence: SLQSEYVHYGG [CDC14A_Y591]
0.587

What about YPLELYERVRM [PRKCG_Y312] ?
1.02

One more sequence: GEDEPYAEPFA [APBA1_Y183_S184A_YF]
1.08

Another sequence to check: TVDASYYGGRG [ANTXR2_Y380]
0.763

Can you check DRTVHYVDEKG [IFT140_Y216_G212R] next?
0.979

Then this sequence: QKFMAYLSQGG [HLCS_Y236]
1.23

Now consider LFNQDYPIHSV [GATM_Y227_YF] .
1.21

Okay, and RRYLYYYSYLL [PTEN_Y177_V175L] ?
0.973

Also check DFTSRYLNASD [PKHD1_Y828]
1.25

Now the same for MSGDVYSTDFF [NTRK2_Y702_R699G_YF]
0.701

Further, for LLVVLNKYRCY [PSEN1_Y154_Y154N] ?
0.952

Try this sequence too: LIGRGYDDPEV [HSPA9_Y128_R127G]
0.772

And TQRPFYKGGGG [TYROBP_Y112_YF] ?
0.947

Field entry: AVISVYDLVVV [PSEN1_Y256_A260V]
0.984

Same read-out for NGPDVYVLPLT [AATK_Y93] ?
0.804

One more sequence: DFRTTYVNANE [KCNH2_Y475_N470D]
23.1

Moving on to the next sequence: EWLRGYLENGK [HLA-C_Y195_R194G]
0.871

Next entry: PEADKYHLTYA [FGG_Y300_R301H]
0.561

And for EDNPEYMRLRN [ADD2_Y31_D28N] ?
0.85

Same thing, different sequence: LTERSYSFVTT [ACTA1_Y200_G199S]
0.945

Query CKLVDYDSARH [BIN1_Y150_R145C] next
0.845

Also, GFILMYDITNE [RAB3C_Y110] please.
1.05

Input PLYRKYWPNHI [GREB1L_Y1560]
1.09

Would you kindly repeat that for KLFYIYTSGTT [SLC27A4_Y245] ?
0.943

Now consider FASALYRQRRS [FGF11_Y162_YF] and answer again.
0.79

Would you kindly repeat that for GVRTIYTIDGS [DCLK2_Y124] ?
0.968

----------
molecular target: EPHB2 (UniProt P29323); experiment: phosphorylation enrichment, bacterial display (enrichment ratio); higher = better substrate or ligand; peptides without Tyr show the background
Sequence (P29323 whole entry, looked up): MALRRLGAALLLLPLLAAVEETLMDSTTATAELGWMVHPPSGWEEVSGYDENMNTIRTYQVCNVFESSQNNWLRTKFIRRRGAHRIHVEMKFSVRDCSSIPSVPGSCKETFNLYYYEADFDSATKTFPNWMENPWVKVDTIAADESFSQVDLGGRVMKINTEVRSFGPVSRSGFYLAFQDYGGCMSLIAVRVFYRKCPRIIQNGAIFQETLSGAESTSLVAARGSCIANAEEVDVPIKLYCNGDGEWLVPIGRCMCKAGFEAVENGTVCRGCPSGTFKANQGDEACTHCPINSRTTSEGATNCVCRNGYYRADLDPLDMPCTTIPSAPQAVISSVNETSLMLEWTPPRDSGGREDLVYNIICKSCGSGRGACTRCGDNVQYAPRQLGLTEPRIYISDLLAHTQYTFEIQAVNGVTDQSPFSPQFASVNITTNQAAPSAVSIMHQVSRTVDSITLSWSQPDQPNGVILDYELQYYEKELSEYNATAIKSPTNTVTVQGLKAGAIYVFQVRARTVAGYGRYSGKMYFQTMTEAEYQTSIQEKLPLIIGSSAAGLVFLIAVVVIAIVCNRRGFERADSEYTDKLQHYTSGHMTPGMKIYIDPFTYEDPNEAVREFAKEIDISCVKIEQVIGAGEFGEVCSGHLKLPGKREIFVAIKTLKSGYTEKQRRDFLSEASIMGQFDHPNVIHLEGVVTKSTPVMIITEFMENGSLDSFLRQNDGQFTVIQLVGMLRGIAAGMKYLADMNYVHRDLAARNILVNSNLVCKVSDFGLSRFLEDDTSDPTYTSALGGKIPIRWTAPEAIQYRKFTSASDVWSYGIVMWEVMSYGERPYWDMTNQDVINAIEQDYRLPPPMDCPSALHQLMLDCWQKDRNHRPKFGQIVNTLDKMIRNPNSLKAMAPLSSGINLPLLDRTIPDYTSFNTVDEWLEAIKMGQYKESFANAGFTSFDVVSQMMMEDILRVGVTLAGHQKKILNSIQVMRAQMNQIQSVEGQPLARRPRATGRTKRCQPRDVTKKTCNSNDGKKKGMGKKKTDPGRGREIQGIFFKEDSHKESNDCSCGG
Could you please report measured phosphorylation enrichment for the items listed next?

Quick one: phosphorylation enrichment for LKYAIYFEVRE [LAMA2_Y1258_A1261V] ?
1.23

Now give it for FCRHNYGVVES [HLA-DRB1_Y112_YF] too.
2.62

Queued: LYNQDYPIHSV [GATM_Y227]
1.03

Next sequence up: RFMELYDLNRD [BBS2_Y648_YF]
0.812

Query YSPCDYQPCLA [TNS1_Y798_Y796C] next
9.31

Same for ENELTYFCFKK [CD59_Y86_C89Y_YF]
0.667

Try this sequence next: DSRRDYVSQFE [APOA1_Y53_G50R]
0.447

And for FEPWVYSLSYE [PRKDC_Y647_F649L] ?
0.767

Same read-out for QNTGYYYDLYG [PTPN11_Y62_D61Y] ?
17.9

Param item: DYYDLYGGEKF [PTPN11_Y66]
6.92

Try this sequence too: THLARYSDELR [APOA1_Y190_P189R]
0.412

Queued: IRKDLYSNNVL [ACTC1_Y296_A297S]
0.476

Next entry: EFNINYNNELP [THG1L_Y228]
0.516

Can you check QGLMPYGQPRP [SRRT_Y798] next?
0.513

Check ISHVAYLVLGK [TRRAP_Y892_R893L] too.
0.5

Check TKDTFYKQPMF [GBA_Y451] too.
0.37

Okay, and KAWTIYRPEDS [ZBP1_Y165] ?
0.512

And the next one, KTKLGYSPLHQ [ANK1_Y735] ?
0.326

And for LHSEAYLKFNE [PBRM1_Y1610_I1614N_YF] ?
0.651

Please give the result for IVKAYYVHARA [AIPL1_Y268_R270H] too.
0.533

Similarly, LNEAVYTKMMT [G6PD_Y401_P396L] ?
1.8

Another sequence to check: GNEEAYGSSHI [FAM171B_Y522_R524S]
0.525

Would you kindly repeat that for VIVRMYDYHVL [RPF2_Y109_G106V] ?
3.26

Follow-up entry: GISDEYHMIRH [GCDH_Y398_V400M]
0.522

Query KNEVLYDGENH [ARFGEF1_Y314] next
0.525

Lookup AVISVYDLVVV [PSEN1_Y256_A260V]
4.03

Another sequence: TFGNLYGSRKQ [YIPF7_Y59_A54T_YF]
0.398

Similarly, ANARMYGVLPW [PLP1_Y207_D203N] ?
0.676

Same for EVTLTYATGIK [NFKB1_Y485_T489I]
0.424
